B1: tRNA (parent)
chain: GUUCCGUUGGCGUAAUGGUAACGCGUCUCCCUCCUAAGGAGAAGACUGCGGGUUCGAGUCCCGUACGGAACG

- Variants of: B1
- experiment description: yeast fitness relative to wild type (ratio to wild type); higher = fitter; tRNA-Arg(CCU), competitive growth, 37 C, YPD
Variants at the floor of the assay were thinned out.
# yeast fitness >= 0.6 gives True, anything below gives False

mutation list	assigned label
A42U G63A G68C	False
C46U C49U U53C	True
A21U U32G G48C G68C	False
C11U U19G C27U C29G	False
U16A C46U G51C	True
C4G C5A A21C U54A A65U A69C	False
C31U G58C C61A A69U	False
G23A C30U G39A C60G	False
G10A C11A A15C C24A C34A C46G	False
A15C G38A A45G G52A C61G	False
U32C A43G A65C	True
U3A U26A G58C G63A	False
A40G C46A C61U G67A	False
G12C C27G C30G	False
A14G A20G A69C	False
U2G U13G C49U G56A A70G	False
U53G U64G A69C	True
C34U A36U C66U	False
C29G A40G	True
C11G	True
U2G C4A U16C	False
G41A A43G A70U	True
G6A A20G C60G	False
C4G C34G A40G G68A	False
A14G G52C C66G	True
A15U C22G C62U	False
A14C A36G A69C	False
C4G C29G C49U C60G	False
C5G C29U A43C	False
A36G A37U U64C A65G	False
G39C C55G C66U	False
G44C G56C	False
G9C A15U C24U U53G C62G	False
C5A C11U A14U C27U A36U A43G C46U	False
C24G A37G G58A G67A	False
U13A A14U C24G U28G C31U C66U	False
U7A A21G C30G A36G C46G U54C A57U	False
C27U G58A A70G	True
U2A A21G C46G U54C	False
G10A G58C A70U	True
A15G U32C A37G C55A	False
C4G A40U	True
